All values here come from BindingDB's records for doi:10.1021/acs.jmedchem.7b01490.

The compounds listed here are annotated with their pEC50.
- Method notes: Inhibition of CHK1 in human HT29 cells assessed as abrogation of camptothecin-induced G2/M phase arrest
// pEC50: -log10(molar conc.)

Use these answered entries as a reference point.
[[record]]
structure_as_smiles = "CN(c1ncc(C(N)=O)c2sc(-c3ccccc3)cc12)[C@H]1CCCNC1"
readout_number = 6.08

[[record]]
structure_as_smiles = "NC(=O)c1cnc(N[C@H]2CCCNC2)c2cc(-c3ccccc3)oc12"
readout_number = 6.41

[[record]]
structure_as_smiles = "NC(=O)c1cnc(N[C@H]2CCCNC2)c2cc(-c3ccsc3)sc12"
readout_number = 8.00


Now for the compound whose pEC50 we want.
Ask: Which pEC50 is listed for `NC(=O)c1ccc(N[C@H]2CCCNC2)c2cc(-c3cccc(F)c3)[nH]c12` ?
Reply: 7.52
